- measurement target: human GLP-1 receptor (GLP-1R) (human, UniProt P43220 24-463)
- assay remarks: cell-based or functional assay
Numbered stars: 1 amine (or outer) side, 2 acyl side, 3 side chain; on linkers, the order of the positions; unused ones are H or OH. Square brackets hold non-standard residues; d marks the D form. Side chains are listed from the residue outwards. Ends that are not written are not given here. * marks the point of attachment. C20 diacid = O=C(O)CCCCCCCCCCCCCCCCCCC(=O)*; γGlu = O=C(O)[C@H](CCC(=O)[*:2])N[*:1]; AEEA = NCCOCCOCC(=O)O; Aib = CC(C)(N)C(=O)O
For each of the binders below, state its hGLP1R cAMP Rel EC50.
Your answer is read as nM, so omit the unit and give the number.

[ask] Fill in: hGLP1R cAMP Rel EC50 of FXEGTFTSDYSIXLDKKAQXEFIEYLIAGGPSSGAPPPS (not fully specified; Aib2, αMeL13, (2-[2-(2-Amino-ethoxy)-ethoxy]-acetyl)2-(γ-Glu)-CO-(CH2)18-CO2H on K17, Aib20, C-terminal NH2) [Example 338] is ___
[reply] 0.174

[ask] Fill in: hGLP1R cAMP Rel EC50 of YXEGTXTSDXSIXLDXKAQXEFIXXLIEGGPSSG (Aib2, αMeF(2F)6, 4Pal10, αMeF13 (so in the source), Orn16, (2-[2-(2-Amino-ethoxy)-ethoxy]-acetyl)2-(γ-Glu)-CO-(CH2)16-CO2H on K17, Aib20, D-Glu24, αMeY25, C-terminal NH2) [Example 264] is ___
[reply] 0.0229

[ask] Fill in: hGLP1R cAMP Rel EC50 of YXEGTFTSDYSILLDKKAQEAFIEYLIEGGPSSGAPPPS (Aib2, (2-[2-(2-Amino-ethoxy)-ethoxy]-acetyl)2-(γ-Glu)-CO-(CH2)18-CO2H on K17, C-terminal NH2) [Example 261] is ___
[reply] 0.0948

[ask] Fill in: hGLP1R cAMP Rel EC50 of YXEGTFTSDYSIXLDEKAQXAFIEYLIAGGPSSGAPPPS (Aib2, αMeL13, (2-[2-(2-Amino-ethoxy)-ethoxy]-acetyl)2-(γ-Glu)-CO-(CH2)18-CO2H on K17, Aib20, C-terminal NH2) [Example 332] is ___
[reply] 0.184

[ask] Fill in: hGLP1R cAMP Rel EC50 of XXEGTFTSDYSIXLDXKAQXAFIEYLIAGGPSSGAPPPS (D-Tyr1, Aib2, αMeL13, Orn16, (2-[2-(2-Amino-ethoxy)-ethoxy]-acetyl)2-(γ-Glu)-CO-(CH2)18-CO2H on K17, Aib20, C-terminal NH2) [Example 346] is ___
[reply] 0.128

[ask] Fill in: hGLP1R cAMP Rel EC50 of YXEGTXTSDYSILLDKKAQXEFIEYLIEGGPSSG (Aib2, αMeF6, (2-[2-(2-Amino-ethoxy)-ethoxy]-acetyl)2-(γ-Glu)-CO-(CH2)16-CO2H on K17, Aib20, C-terminal NH2) [Example 308] is ___
[reply] 0.0392

[ask] Fill in: hGLP1R cAMP Rel EC50 of YXEGTXTSDYSILLDKKAQXAFIEYLIAGGPSSG (Aib2, αMeF(2F)6, (2-[2-(2-Amino-ethoxy)-ethoxy]-acetyl)2-(γ-Glu)-CO-(CH2)16-CO2H on K17, Aib20, C-terminal NH2) [Example 313] is ___
[reply] 0.0388

[ask] Fill in: hGLP1R cAMP Rel EC50 of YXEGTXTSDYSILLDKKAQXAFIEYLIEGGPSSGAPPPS (Aib2, αMeF(2F)6, (2-[2-(2-Amino-ethoxy)-ethoxy]-acetyl)2-(γ-Glu)-CO-(CH2)18-CO2H on K17, Aib20, C-terminal NH2) [Example 325] is ___
[reply] 0.0586

[ask] Fill in: hGLP1R cAMP Rel EC50 of XXEGTFTSDYSIXLDXKAQXEFIXYLIAGGPSSGAPPPS (D-Tyr1, Aib2, αMeL13, Orn16, (2-[2-(2-Amino-ethoxy)-ethoxy]-acetyl)2-(γ-Glu)-CO-(CH2)18-CO2H on K17, Aib20, D-Glu24, C-terminal NH2) [Example 354] is ___
[reply] 0.54

[ask] Fill in: hGLP1R cAMP Rel EC50 of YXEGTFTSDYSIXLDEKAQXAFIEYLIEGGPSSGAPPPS (Aib2, αMeL13, (2-[2-(2-Amino-ethoxy)-ethoxy]-acetyl)2-(γ-Glu)-CO-(CH2)16-CO2H on K17, Aib20, C-terminal NH2) [Example 323] is ___
[reply] 0.0597

[ask] Fill in: hGLP1R cAMP Rel EC50 of YXEGTFTSDYSIXLDEKAQXAFIEYLIEGGPSSG (Aib2, αMeL13, (2-[2-(2-Amino-ethoxy)-ethoxy]-acetyl)2-(γ-Glu)-CO-(CH2)16-CO2H on K17, Aib20, C-terminal NH2) [Example 303] is ___
[reply] 0.104

[ask] Fill in: hGLP1R cAMP Rel EC50 of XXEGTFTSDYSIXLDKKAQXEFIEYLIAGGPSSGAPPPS (D-Tyr1, Aib2, αMeL13, (2-[2-(2-Amino-ethoxy)-ethoxy]-acetyl)2-(γ-Glu)-CO-(CH2)18-CO2H on K17, Aib20, C-terminal NH2) [Example 290] is ___
[reply] 0.179

[ask] Fill in: hGLP1R cAMP Rel EC50 of XXEGTFTSDYSIXLDKKAQXAFIXYLIEGGPSSGAPPPS (D-Tyr1, Aib2, αMeL13, (2-[2-(2-Amino-ethoxy)-ethoxy]-acetyl)2-(γ-Glu)-CO-(CH2)18-CO2H on K17, Aib20, D-Glu24, C-terminal NH2) [Example 356] is ___
[reply] 0.506

[ask] Fill in: hGLP1R cAMP Rel EC50 of XXEGTFTSDYSIXLDXKAQXAFIXYLIEGGPSSGAPPPS (D-Tyr1, Aib2, αMeL13, Orn16, (2-[2-(2-Amino-ethoxy)-ethoxy]-acetyl)2-(γ-Glu)-CO-(CH2)18-CO2H on K17, Aib20, D-Glu24, C-terminal NH2) [Example 357] is ___
[reply] 0.181

[ask] Fill in: hGLP1R cAMP Rel EC50 of F[Aib]EGTFTSDYSILLDKK([AEEA-AEEA-γGlu-C20 diacid])AQ[Aib]AFIEYLIEGGPSSGAPPPS-NH2 [Example 326] is ___
[reply] 0.0369

[ask] Fill in: hGLP1R cAMP Rel EC50 of YXEGTXTSDYSILLDXKAQXEFIXYLIEGGPSSGAPPPS (Aib2, αMeF(2F)6, Orn16, (2-[2-(2-Amino-ethoxy)-ethoxy]-acetyl)2-(γ-Glu)-CO-(CH2)16-CO2H on K17, Aib20, D-Glu24, C-terminal NH2) [Example 248] is ___
[reply] 0.0428

[ask] Fill in: hGLP1R cAMP Rel EC50 of YXEGTFTSDYSILLDKKAQTAFIEYLIEGGPSSGAPPPS (Aib2, (2-[2-(2-Amino-ethoxy)-ethoxy]-acetyl)2-(γ-Glu)-CO-(CH2)18-CO2H on K17, C-terminal NH2) [Example 262] is ___
[reply] 0.0943

[ask] Fill in: hGLP1R cAMP Rel EC50 of YXEGTFTSDYSIXLDKKAQXEFIEYLIEGGPSSGAPPPS (not fully specified; Aib2, αMeL13, (2-[2-(2-Amino-ethoxy)-ethoxy]-acetyl)2-(γ-Glu)-CO-(CH2)18-CO2H on K17, Aib20, C-terminal NH2) [Example 333] is ___
[reply] 0.131

[ask] Fill in: hGLP1R cAMP Rel EC50 of YXEGTFTSDYSILLDKKAQHAFIEYLIEGGPSSGAPPPS (Aib2, (2-[2-(2-Amino-ethoxy)-ethoxy]-acetyl)2-(γ-Glu)-CO-(CH2)18-CO2H on K17, C-terminal NH2) [Example 255] is ___
[reply] 0.0407

[ask] Fill in: hGLP1R cAMP Rel EC50 of XXEGTFTSDYSIXLDEKAQXEFIEYLIAGGPSSGAPPPS (not fully specified; D-Tyr1, Aib2, αMeL13, (2-[2-(2-Amino-ethoxy)-ethoxy]-acetyl)2-(γ-Glu)-CO-(CH2)18-CO2H on K17, Aib20, C-terminal NH2) [Example 342] is ___
[reply] 0.127

[ask] Fill in: hGLP1R cAMP Rel EC50 of FXEGTFTSDYSIXLDKKAQXAFIEYLIEGGPSSGAPPPS (Aib2, αMeL13, (2-[2-(2-Amino-ethoxy)-ethoxy]-acetyl)2-(γ-Glu)-CO-(CH2)18-CO2H on K17, Aib20, C-terminal NH2) [Example 327] is ___
[reply] 0.27

[ask] Fill in: hGLP1R cAMP Rel EC50 of YXEGTXTSDYSILLDKKAQXEFIEYLIAGGPSSG (Aib2, αMeF6, (2-[2-(2-Amino-ethoxy)-ethoxy]-acetyl)2-(γ-Glu)-CO-(CH2)16-CO2H on K17, Aib20, C-terminal NH2) [Example 310] is ___
[reply] 0.0283

[ask] Fill in: hGLP1R cAMP Rel EC50 of YXEGTFTSDYSIXLDKKAQXEFIEYLIEGGPSSG (Aib2, αMeL13, (2-[2-(2-Amino-ethoxy)-ethoxy]-acetyl)2-(γ-Glu)-CO-(CH2)16-CO2H on K17, Aib20, C-terminal NH2) [Example 304] is ___
[reply] 0.191
